Value source: patent US20200308290A1

We begin with a simple list: items and their reported Kd.
Biological target: T1, cynomolgous monkey CD25 (cynomolgous monkey)
T1 construct: also called cmCD25; cm
Assay: SPR (BIAcore), cynomolgous CD25

# binder, relationSymbol, Kd, nM
records = [
    ("Variant C53 (antibody, V domains shown) VH: QVQLVQSGAEVKKPGSSVKVSCKASGYTFTSYRMHWVRQAPGQGLEWMGYISPRKGRTEYNQKFKDKATITADESTNTAYMELSSLRSEDTAVYYCARGGGVFDYWGQGTLVTVSS VL: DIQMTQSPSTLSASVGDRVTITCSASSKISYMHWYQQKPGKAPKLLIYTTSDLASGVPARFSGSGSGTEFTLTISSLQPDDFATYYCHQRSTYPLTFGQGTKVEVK", "<", 0.0024),
    ("Variant C62 (antibody, V domains shown) VH: QVQLVQSGAEVKKPGSSVKVSCKASGYTFTSYRMHWVRQAPGQGLEWMGYIKPNKGRTEYNQKFKDKATITADESTNTAYMELSSLRSEDTAVYYCARGGGVFDYWGQGTLVTVSS VL: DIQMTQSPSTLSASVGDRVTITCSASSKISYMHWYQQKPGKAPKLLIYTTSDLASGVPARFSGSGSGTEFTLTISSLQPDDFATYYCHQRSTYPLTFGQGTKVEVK", "=", 0.1),
    ("Variant C45 (antibody, V domains shown) VH: QVQLVQSGAEVKKPGSSVKVSCKASGYTFTSYRMHWVRQAPGQGLEWMGYISPKSGYTEYNQKFKDKATITADESTNTAYMELSSLRSEDTAVYYCARGGGVFDYWGQGTLVTVSS VL: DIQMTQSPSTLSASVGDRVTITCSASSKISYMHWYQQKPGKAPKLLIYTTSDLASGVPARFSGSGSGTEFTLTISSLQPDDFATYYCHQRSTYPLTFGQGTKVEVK", "=", 0.055),
]
